# target-entity: Amine oxidase [copper-containing] 3 (Bos taurus, UniProt Q9TTK6)
# assay-details: Stability of compound assessed as bovine plasma VAP-1 mediated drug degradation by measuring formation of aldehyde metabolite at 1 to 10 uM incubated for 60 to 120 mins by HPLC-MS analysis
# Type: ADME, cell-free
# setup-conditions: cattle, dose lower 1 µM, time lower 60 min, dose upper 10 µM, time upper 120 min
measured-quantity: Stability

Recorded results for 5 compounds are shown here.
substance_smiles=CS(=O)(=O)c1ccc(-c2nnn(CCCCCCNC(=O)CN)n2)cc1 reported_measurement=Unstable
substance_smiles=Cl.NCC(=O)NCc1cccc(Cn2nnc(-c3ccccc3)n2)c1 reported_measurement=Stable
substance_smiles=NCC(=O)NCCCCCCn1nnc(-c2ccccc2)n1 reported_measurement=Unstable
substance_smiles=N#Cc1ccc(-c2nnn(CCCCCCNC(=O)CN)n2)cc1 reported_measurement=Unstable
substance_smiles=NCC(=O)NCc1cccc(-c2ccccc2)c1 reported_measurement=Unstable

# ---- query compound ----
Task item: Tell us which Stability value is on record for "Cl.N#Cc1ccc(-c2nnn(Cc3cccc(CNC(=O)CN)c3)n2)cc1"
Reply: Stable

====

# target-entity: VAP-1 (amine oxidase [copper-containing] 3) (Bos taurus)
# Sequence (Q9TTK6 whole entry): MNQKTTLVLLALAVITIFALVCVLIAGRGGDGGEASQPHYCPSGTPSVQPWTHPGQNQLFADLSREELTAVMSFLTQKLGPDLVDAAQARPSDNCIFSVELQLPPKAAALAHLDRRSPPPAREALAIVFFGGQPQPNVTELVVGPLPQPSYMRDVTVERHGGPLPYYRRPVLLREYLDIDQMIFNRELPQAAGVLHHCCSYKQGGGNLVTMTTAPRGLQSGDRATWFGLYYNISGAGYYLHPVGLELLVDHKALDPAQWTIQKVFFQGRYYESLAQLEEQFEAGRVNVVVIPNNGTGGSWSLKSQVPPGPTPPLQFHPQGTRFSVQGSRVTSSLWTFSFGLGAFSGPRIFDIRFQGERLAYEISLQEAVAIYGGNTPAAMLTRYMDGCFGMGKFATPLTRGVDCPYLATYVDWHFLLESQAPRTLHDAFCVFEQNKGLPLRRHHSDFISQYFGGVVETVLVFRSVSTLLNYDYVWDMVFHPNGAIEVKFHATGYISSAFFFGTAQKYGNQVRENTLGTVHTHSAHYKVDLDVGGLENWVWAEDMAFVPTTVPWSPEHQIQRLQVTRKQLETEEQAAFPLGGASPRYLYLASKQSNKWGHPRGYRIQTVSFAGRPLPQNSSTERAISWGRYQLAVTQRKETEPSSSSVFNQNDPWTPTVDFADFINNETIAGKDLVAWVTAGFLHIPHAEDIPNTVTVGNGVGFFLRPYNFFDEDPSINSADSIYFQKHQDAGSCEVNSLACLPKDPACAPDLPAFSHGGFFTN
# assay-details: Stability of compound assessed as bovine plasma VAP-1 mediated drug degradation by measuring parent compound remaining at 10 uM incubated for 15 mins by HPLC-MS analysis
# Format: ADME, cell-free
# setup-conditions: cattle, bovine plasma VAP-1 (amine oxidase [copper-containing] 3), read-out: Stability
measured-quantity: remaining at 0.25 h, 10 µM (%)

substance_smiles=NCC(=O)NCc1ccc(Cn2nnc(-c3ccccc3)n2)cc1 target_entity="VAP-1 (amine oxidase [copper-containing] 3) (Bos taurus)" reported_measurement=89
substance_smiles=CS(=O)(=O)c1ccc(-c2nnn(CCCCCCNC(=O)CN)n2)cc1 target_entity="VAP-1 (amine oxidase [copper-containing] 3) (Bos taurus)" reported_measurement=82
substance_smiles=NCC(=O)NCc1cccc(-c2ccccc2)c1 target_entity="VAP-1 (amine oxidase [copper-containing] 3) (Bos taurus)" reported_measurement=92
